target: Cyclin-dependent kinase 4 (Homo sapiens, UniProt P11802)
Sequence (P11802 whole entry): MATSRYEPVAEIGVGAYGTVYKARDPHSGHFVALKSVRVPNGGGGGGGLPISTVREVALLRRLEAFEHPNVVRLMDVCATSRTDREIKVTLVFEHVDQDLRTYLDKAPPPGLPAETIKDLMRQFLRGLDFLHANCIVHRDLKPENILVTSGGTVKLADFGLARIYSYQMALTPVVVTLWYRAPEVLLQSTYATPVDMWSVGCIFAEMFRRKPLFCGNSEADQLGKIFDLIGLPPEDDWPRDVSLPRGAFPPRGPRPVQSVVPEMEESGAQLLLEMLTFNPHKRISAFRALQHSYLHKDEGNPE
pKi: −log10 of the molar value.
Threshold rule: pKi greater than or equal to 7 is t; below that, f.

// known answers, use as guide
1) CNc1nc(C)c(-c2ccnc(Nc3cccc(S(=O)(=O)NC)c3)n2)s1 t
2) CCNS(=O)(=O)c1cccc(Nc2nccc(-c3sc(N)nc3C)n2)c1 f
3) Cc1ccc(Nc2nccc(-c3sc(N)nc3C)n2)cc1S(=O)(=O)N1CCOCC1 f

INPUT: Is reported pKi greater than or equal to 7 here: `CNc1nc(C)c(-c2ccnc(Nc3ccc(C)c(S(=O)(=O)N4CCOCC4)c3)n2)s1`
OUTPUT: f

INPUT: // same read-out, input: `COCCNS(=O)(=O)c1ccc(Nc2nccc(-c3sc(=O)n(C)c3C)n2)cc1`
OUTPUT: f
